Ref: patent US6951856B2

- assay.target: human recombinant ETB receptors (Homo sapiens, UniProt P24530)
- Construct: expressed in transfected cells; host or cells: CHO cells (microsomal membranes)
- Sequence (P24530 27-442): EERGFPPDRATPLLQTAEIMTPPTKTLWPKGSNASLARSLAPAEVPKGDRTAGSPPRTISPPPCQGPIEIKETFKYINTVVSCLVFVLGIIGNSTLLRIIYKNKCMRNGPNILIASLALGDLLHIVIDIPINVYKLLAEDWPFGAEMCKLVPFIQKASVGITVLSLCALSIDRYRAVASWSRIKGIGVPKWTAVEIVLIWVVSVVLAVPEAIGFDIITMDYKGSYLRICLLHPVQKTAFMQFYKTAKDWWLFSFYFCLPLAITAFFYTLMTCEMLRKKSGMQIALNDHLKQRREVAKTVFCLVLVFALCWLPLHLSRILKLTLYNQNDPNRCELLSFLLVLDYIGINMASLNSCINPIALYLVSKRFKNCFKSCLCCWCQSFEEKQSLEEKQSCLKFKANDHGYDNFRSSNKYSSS
- test.name: Inhibition of [125I]ET-1 binding to membranes from CHO cells carrying human ETB receptors
readout: log10(IC50) (log10 of the value in nM)
Values reflect log10 of reported IC50 (nM).

Worked set:
1. COc1ccccc1Oc1c(NS(=O)(=O)/C=C/c2ccccc2)nc(N2CCOCC2)nc1OCCOc1ncc(C(F)(F)F)cn1 ... 2.77
2. O=S(=O)(/C=C/c1ccccc1)Nc1ncnc(OCCOc2ccc(C(F)(F)F)cn2)c1-c1ccc(Cl)cc1 ... 2.52

Would you be so kind as to report log10(IC50) for each listed record?
1. COc1cnc(OCCOc2nc(N3CCOCC3)nc(NS(=O)(=O)/C=C/c3ccccc3)c2Oc2ccccc2OC)nc1
2. O=S(=O)(/C=C/c1ccccc1)Nc1nc(-c2ccncc2)nc(OCCOc2ncc(Br)cn2)c1-c1ccc(Cl)cc1
3. COc1ccccc1Oc1c(NS(=O)(=O)/C=C/c2ccsc2)nc(-c2ccncc2)nc1OCCOc1ncc(Cl)cn1
4. Cc1cccc(/C=C/S(=O)(=O)Nc2ncnc(OCCOc3ncc(Br)cn3)c2-c2ccc(Cl)cc2)c1
5. O=S(=O)(/C=C/c1ccccc1)Nc1ncnc(OCCOc2ncc(Br)cn2)c1-c1ccccc1

OUT:
2.34
3.40
3.30
3.17
3.87

Would you be so kind as to report log10(IC50) for each listed record?
1. Cc1ccc(-c2c(NS(=O)(=O)/C=C/c3ccccc3)ncnc2OCCOc2ncc(F)cn2)cc1
2. Cc1ccc(-c2c(NS(=O)(=O)/C=C/c3cccs3)nc(-c3ncccn3)nc2OCCOc2ncc(Cl)cn2)cc1
3. COc1cnc(OCCOc2nc(C)nc(NS(=O)(=O)/C=C/c3ccccc3)c2-c2ccc(C)cc2)nc1
4. Cc1ccc(-c2c(NS(=O)(=O)/C=C/c3ccccc3)nc(-c3ccncc3)nc2OCCOc2ncc(Br)cn2)cc1

OUT:
1: 3.33; 2: 3.68; 3: 3.23; 4: 3.41

* * *

- assay.target: human recombinant ETA receptors (Homo sapiens, UniProt P25101)
- Sequence (P25101 21-427): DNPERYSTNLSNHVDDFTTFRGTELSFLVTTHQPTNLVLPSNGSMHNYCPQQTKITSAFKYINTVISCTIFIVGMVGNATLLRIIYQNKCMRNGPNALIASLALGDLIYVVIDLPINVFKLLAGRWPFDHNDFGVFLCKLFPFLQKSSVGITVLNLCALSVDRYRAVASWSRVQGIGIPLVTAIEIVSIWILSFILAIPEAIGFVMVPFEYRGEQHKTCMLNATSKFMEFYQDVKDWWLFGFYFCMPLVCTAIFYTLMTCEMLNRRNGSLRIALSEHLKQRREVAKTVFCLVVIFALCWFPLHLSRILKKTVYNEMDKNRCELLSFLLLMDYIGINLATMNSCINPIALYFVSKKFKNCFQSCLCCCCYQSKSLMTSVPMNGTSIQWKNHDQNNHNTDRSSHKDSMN
- test.name: Inhibition of [125I]ET-1 binding to membranes from CHO cells carrying human ETA receptors
- experimental.context: CHO cell membranes, 8 pM [125I]ET-1, 2 h at 20° C.
readout: IC50
// return the numeric value with its unit appended

1) O=S(=O)(/C=C/c1ccc(Cl)cc1)Nc1ncnc(OCCOc2ncc(Br)cn2)c1-c1ccc(Cl)cc1 ... 14 nM
2) COc1cccc(Oc2c(NS(=O)(=O)/C=C/c3ccccc3)ncnc2OCCOc2ncc(SC)cn2)c1 ... 10 nM
3) Cc1ccc(-c2c(NS(=O)(=O)/C=C/c3ccccc3)nc(-c3cnccn3)nc2OCCOc2ncc(Br)cn2)cc1 ... 6.7 nM

Would you be so kind as to report IC50 for each listed record?
1. Cc1ccc(/C=C/S(=O)(=O)Nc2ncnc(OCCOc3ncc(Cl)cn3)c2-c2ccc(Cl)cc2)cc1
2. Cc1ccc(-c2c(NS(=O)(=O)/C=C/c3cccs3)nc(-c3ncccn3)nc2OCCOc2ncc(Br)cn2)cc1 [Example 72]
3. COc1ccc(Cl)c(Oc2c(NS(=O)(=O)/C=C/c3ccccc3)ncnc2OCCOc2ncc(Br)cn2)c1
4. COc1ccccc1Oc1c(NS(=O)(=O)/C=C/c2ccccc2)nc(N2CCOCC2)nc1OCCOc1ncc(Cl)cn1
5. C/C(=C\c1ccccc1)S(=O)(=O)Nc1ncnc(OCCOc2ncc(Br)cn2)c1-c1ccc(Cl)cc1

OUT:
30 nM
9 nM
5.2 nM
6 nM
58 nM

Would you be so kind as to report IC50 for each listed record?
1. COc1ccccc1Oc1c(NS(=O)(=O)/C=C/c2cccs2)nc(-c2ccncc2)nc1OCCOc1ncccn1
2. COc1ccccc1Oc1c(NS(=O)(=O)/C(C)=C/c2ccccc2)nc(-c2ccncc2)nc1OCCOc1ncc(Br)cn1
3. COc1cnc(OCCOc2ncnc(NS(=O)(=O)/C=C/c3ccccc3)c2-c2ccc(C)cc2)nc1
4. Cc1ccc(-c2c(NS(=O)(=O)/C=C/c3ccccc3)ncnc2OCCOc2ccc(C(F)(F)F)cn2)cc1
5. COc1cnc(OCCOc2nc(-c3cnccn3)nc(NS(=O)(=O)/C=C/c3ccccc3)c2-c2ccc(C)cc2)nc1
6. COc1cnc(OCCOc2nc(-c3ncccn3)nc(NS(=O)(=O)/C=C/c3ccccc3)c2-c2ccc(C)cc2)nc1

OUT:
1: 6.7 nM; 2: 4.7 nM; 3: 14.7 nM; 4: 12.8 nM; 5: 9 nM; 6: 10 nM

IN: GET /values?readout=IC50&item= Cc1ccc(/C=C/S(=O)(=O)Nc2ncnc(OCCOc3ncc(Cl)cn3)c2-c2ccc(C)cc2)cc1
OUT: 21.7 nM
